Readings of t½ for the listed binders
target: T1, hRET.mFc (human); assay: SPR Biacore T200, mAb capture, 37 C
T1 construct: also called dimeric human RET

| binder | t½ [min] |
| --- | --- |
| H4H8058P (antibody, human IgG4, V domains shown, human IgG4 Fc (H4H prefix)) VH: QVQLVESGGGVGQPGRSLRLSCVASGFTFRNYGMHWVRQAPGKGLDWVAIIGYDGSKEYNVDSVKGRFTISRDNSKNTLYLQMNSLGAEDTAIYYCARESPITGTTFDYWGQGTLVTVSS VL: DIQMTQSPPSLSASVGDRVTITCRASQSIGNYLNWYQQKPGKAPKILIYAASRLQSGVPSRFSGSGSGTDFTLTISSLQPEDFATYYCQQSYSTPLTFGGGTKVEIK | 10 |
| H4H8056P (antibody, human IgG4, V domains shown, human IgG4 Fc (H4H prefix)) VH: QVQLVESGGGVVQPGRSLRLSCAASGFTFRNYGMHWVRQAPGKGLEWVAVKRYDGSDEYFVDSVKGRFTISRDNSKNTLFLQMNSLRVDDTAVYYCARETPITGTTLDYWGQGTLVTVSS VL: DIQMTQSPSSLSASVGDRVTITCRTSQSITNYLNWYQQKPGKAPKLLIYAASRSQSGVPSRFSGSGSGTDFTLTISSLQPEDFATYYCQQSYSTPLTFGGGTKVEIK | 9 |
